experiment: in vivo; conditions: female, Wistar, rat, serum, po, 500 mg/kg
Let's look at some compounds and their measured Tmax.
Answer format: numeric, min implied, no suffix.

Request: GET /values?readout=Tmax&item= CCOC(=O)c1ccc(O)cc1 [Ethyl paraben, Ethyl 4-hydroxybenzoate]
Result: 4.8

Others:
Request: GET /values?readout=Tmax&item= CCCOC(=O)c1ccc(O)cc1 [Propyl paraben, Propyl 4-hydroxybenzoate]
Result: 15

Request: GET /values?readout=Tmax&item= COC(=O)c1ccc(O)cc1 [Methyl paraben, Methyl 4-hydroxybenzoate]
Result: 4.8

----------
experiment: in vivo; details: female, Wistar, rat, in vivo, po, 1000 mg/kg, AUC0-1 h, parent compound
value type: AUC(0-t)
Form entry: enter the amount, then its unit.

Request: GET /values?readout=AUC(0-t)&item= CCCCOC(=O)c1ccc(O)cc1 [Butyl paraben, Butyl 4-hydroxybenzoate]
Result: 191 ng·h/mL

----------
Let's look at some compounds and their measured Cmax.
assay: in vivo; conditions: male, Wistar, rat, serum, po, 1000 mg/kg, Cmax, parent compound
Answer format: numeric, ng/mL implied, no suffix.

Request: GET /values?readout=Cmax&item= CCCOC(=O)c1ccc(O)cc1 [Propyl paraben, Propyl 4-hydroxybenzoate]
Result: 735

Request: GET /values?readout=Cmax&item= COC(=O)c1ccc(O)cc1 [Methyl paraben, Methyl 4-hydroxybenzoate]
Result: 10800

Request: GET /values?readout=Cmax&item= CCOC(=O)c1ccc(O)cc1 [Ethyl paraben, Ethyl 4-hydroxybenzoate]
Result: 2390

----------
Let's look at some molecules and their measured Clast.
assay: in vivo; settings: parent compound; 500 mg/kg; male
Answer format: numeric, ng/mL implied, no suffix.

Request: GET /values?readout=Clast&item= CCCCOC(=O)c1ccc(O)cc1 [Butyl paraben, Butyl 4-hydroxybenzoate]
Result: 49.2

Request: GET /values?readout=Clast&item= CCOC(=O)c1ccc(O)cc1 [Ethyl paraben, Ethyl 4-hydroxybenzoate]
Result: 70.6

Request: GET /values?readout=Clast&item= COC(=O)c1ccc(O)cc1 [Methyl paraben, Methyl 4-hydroxybenzoate]
Result: 48.6

Shift focus to the following entry.
Request: GET /values?readout=Clast&item= CCCOC(=O)c1ccc(O)cc1 [Propyl paraben, Propyl 4-hydroxybenzoate]
Result: 13.6

----------
experiment: in vivo; settings: male, Wistar, rat, serum, po, 500 mg/kg, AUC0–t, parent compound
value type: AUC(0-t) (ng·h/mL)
Answer format: numeric, ng·h/mL implied, no suffix.

Request: GET /values?readout=AUC(0-t)&item= COC(=O)c1ccc(O)cc1 [Methyl paraben, Methyl 4-hydroxybenzoate]
Result: 1790

Request: GET /values?readout=AUC(0-t)&item= CCOC(=O)c1ccc(O)cc1 [Ethyl paraben, Ethyl 4-hydroxybenzoate]
Result: 632

Request: GET /values?readout=AUC(0-t)&item= CCCOC(=O)c1ccc(O)cc1 [Propyl paraben, Propyl 4-hydroxybenzoate]
Result: 150

----------
Let's look at some molecules and their measured concentration at 1 h.
test: in vivo; details: male, Wistar, rat, serum, oral, 500 mg/kg
Answer format: numeric, ng/mL implied, no suffix.

Consider the reported concentration at 1 h for these molecules:
Request: GET /values?readout=concentration at 1 h&item= CCCOC(=O)c1ccc(O)cc1 [Propyl paraben, Propyl 4-hydroxybenzoate]
Result: 23

Request: GET /values?readout=concentration at 1 h&item= CCOC(=O)c1ccc(O)cc1 [Ethyl paraben, Ethyl 4-hydroxybenzoate]
Result: 71.6

Others:
Request: GET /values?readout=concentration at 1 h&item= COC(=O)c1ccc(O)cc1 [Methyl paraben, Methyl 4-hydroxybenzoate]
Result: 172
